A collection of compounds and their measured Ki
Target: Cannabinoid receptor 1 (Rattus norvegicus)
Sequence (P20272 whole entry): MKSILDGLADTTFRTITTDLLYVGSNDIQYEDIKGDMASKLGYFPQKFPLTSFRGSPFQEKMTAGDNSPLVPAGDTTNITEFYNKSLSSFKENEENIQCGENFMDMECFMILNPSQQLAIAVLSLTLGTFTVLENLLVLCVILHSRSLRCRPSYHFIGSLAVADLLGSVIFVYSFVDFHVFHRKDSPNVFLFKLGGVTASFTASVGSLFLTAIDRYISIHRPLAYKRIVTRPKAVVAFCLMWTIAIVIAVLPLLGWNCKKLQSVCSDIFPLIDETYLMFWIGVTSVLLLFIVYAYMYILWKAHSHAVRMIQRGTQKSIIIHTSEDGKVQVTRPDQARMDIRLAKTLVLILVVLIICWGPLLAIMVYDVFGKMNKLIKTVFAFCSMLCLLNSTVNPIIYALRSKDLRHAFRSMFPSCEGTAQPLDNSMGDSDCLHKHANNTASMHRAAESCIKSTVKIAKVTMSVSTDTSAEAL
Assay: Displacement of [3H]CP-55940 from rat forebrain membrane which expresses Cannabinoid receptor 1 in the presence of PMSF

Would you please look over these solved cases?
{"compound": "CCCCC/C=C\\C=C\\[C@@H](O)C/C=C\\C/C=C\\CCCC(=O)NCCO", "obs_value": "> 1 µM"}
{"compound": "CCCCC[C@H](O)/C=C/C=C\\C/C=C\\C/C=C\\CCCC(=O)OC[C@H](O)CO", "obs_value": "> 1 µM"}

q: Any idea what Ki was measured for CCCCC/C=C\C[C@@H](O)/C=C/C=C\C/C=C\CCCC(=O)NCCO ?
a: 0.15 µM

q: Field request: Ki | item: CCCCC/C=C\C=C\C(O)C/C=C\C/C=C\CCCC(=O)NCCO (mixture of isomers)
a: > 1 µM

q: Could you share which Ki value was measured for CCCCC[C@H](O)/C=C/C=C\C=C\[C@@H](O)C/C=C\CCCC(=O)NCCO ?
a: > 1 µM

q: Look at this compound and give its reported Ki. CCCCC/C=C\C/C=C\C/C=C\C/C=C\CCCC(=O)OC[C@H](O)CO
a: > 1 µM

q: Give its Ki value. Item: CCCCC[C@H](O)/C=C/C=C\C/C=C\C/C=C\CCCC(=O)OC[C@@H](O)CO
a: > 1 µM

q: What Ki value was documented for this compound, CCCCCC(O)/C=C/C=C\C/C=C\C/C=C\CCCC(=O)NCCO (mixture of isomers) ?
a: 0.68 µM

q: Could you share which Ki value was measured for CCCCC[C@@H](O)/C=C/C=C\C/C=C\C/C=C\CCCC(=O)NCCO ?
a: 0.6 µM

q: Ki lookup needed for CCCCC[C@@H](O)/C=C/C=C\C/C=C\C=C\[C@H](O)CCCC(=O)NCCO , thanks.
a: > 1 µM

q: Need Ki, item CCCCC[C@H](O)/C=C/C=C\CCCCCCCC(=O)NCCO
a: > 1 µM

q: Request the reported Ki associated with CCCCC/C=C\C/C=C\C/C=C\C/C=C\CCCC(=O)OC[C@@H](O)CO
a: > 1 µM

Source: ChEMBL document CHEMBL1135549
